Values from paper PMC9516332

# tgt: panel of 255 wild-type kinases (Homo sapiens)
# protocol text: Kinase panel profiling at 1 µmol/L (MSA or IMAP), percentage inhibition
# Format: biochemical
# cond: kinase PDHK4; 1 µmol/L single concentration; read-out: %-inhibition at 1 µmol/L, PDHK4
We begin with a simple list: items and their reported inhibition at 1 µM.
Provide the reading as a plain figure in %.

Here's what some known entries look like.
cpd_smiles=CCc1nc(C(N)=O)c(Nc2ccc(N3CCC(N4CCN(C)CC4)CC3)c(OC)c2)nc1NC1CCOCC1 tgt="panel of 255 wild-type kinases (Homo sapiens)" quantitative_result=3
cpd_smiles=CCN1C(=O)N(c2c(F)c(OC)cc(OC)c2F)Cc2cnc3[nH]c(CN4CCOCC4)cc3c21 tgt="panel of 255 wild-type kinases (Homo sapiens)" quantitative_result=-4
cpd_smiles=CCn1c(=O)c(-c2cc(NC(=O)Nc3ccccc3)c(F)cc2Br)cc2cnc(NC)cc21 tgt="panel of 255 wild-type kinases (Homo sapiens)" quantitative_result=4
cpd_smiles=C[C@H]1Oc2cc(cnc2N)-c2c(nn(C)c2C#N)CN(C)C(=O)c2ccc(F)cc21 tgt="panel of 255 wild-type kinases (Homo sapiens)" quantitative_result=-0.664
cpd_smiles=O=C(Nc1cnn2ccc(N3CCC[C@@H]3c3cc(F)ccc3F)nc12)N1CC[C@H](O)C1 tgt="panel of 255 wild-type kinases (Homo sapiens)" quantitative_result=2
cpd_smiles=Cn1cnc2c(F)c(Nc3ccc(Br)cc3Cl)c(C(=O)NOCCO)cc21 tgt="panel of 255 wild-type kinases (Homo sapiens)" quantitative_result=0.425
cpd_smiles=COc1cc2ncnc(Nc3ccc(F)c(Cl)c3)c2cc1NC(=O)/C=C/CN1CCCCC1 tgt="panel of 255 wild-type kinases (Homo sapiens)" quantitative_result=3
cpd_smiles=C[C@H](Nc1ncnc2nc[nH]c12)c1cc2cccc(Cl)c2c(=O)n1-c1ccccc1 tgt="panel of 255 wild-type kinases (Homo sapiens)" quantitative_result=3
cpd_smiles=FC(F)(F)c1ccc(CNc2ccc(Cc3c[nH]c4ncc(Cl)cc34)cn2)cn1 tgt="panel of 255 wild-type kinases (Homo sapiens)" quantitative_result=4.63
cpd_smiles=C=CC(=O)N1CCC([C@@H]2CCNc3c(C(N)=O)c(-c4ccc(Oc5ccccc5)cc4)nn32)CC1 tgt="panel of 255 wild-type kinases (Homo sapiens)" quantitative_result=0.136

What is its inhibition at 1 µM for panel of 255 wild-type kinases (Homo sapiens)? Entry: CN1CCN(c2ccc(C(=O)Nc3n[nH]c4ccc(Cc5cc(F)cc(F)c5)cc34)c(NC3CCOCC3)c2)CC1
3.42

What is its inhibition at 1 µM for panel of 255 wild-type kinases (Homo sapiens)? Entry: CO[C@]1(C(=O)N[C@@H](C)c2ccc(-n3cc(F)cn3)nc2)CC[C@H](c2nc(C)cc(Nc3cc(C)[nH]n3)n2)CC1
12

====

# tgt: UniProt:P49137
# Sequence (P49137 whole entry): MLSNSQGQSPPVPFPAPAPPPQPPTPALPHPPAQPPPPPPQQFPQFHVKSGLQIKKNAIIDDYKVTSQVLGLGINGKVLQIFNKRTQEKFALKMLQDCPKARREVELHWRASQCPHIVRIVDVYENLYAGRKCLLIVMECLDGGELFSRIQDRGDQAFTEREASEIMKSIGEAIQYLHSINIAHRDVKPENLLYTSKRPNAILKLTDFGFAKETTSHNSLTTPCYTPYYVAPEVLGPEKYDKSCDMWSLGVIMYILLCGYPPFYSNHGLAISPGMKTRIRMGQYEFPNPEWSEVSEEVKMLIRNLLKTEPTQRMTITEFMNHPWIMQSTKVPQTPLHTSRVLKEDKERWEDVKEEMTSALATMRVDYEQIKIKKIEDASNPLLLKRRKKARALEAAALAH
# protocol text: Kinase panel profiling at 1 µmol/L (MSA or IMAP), percentage inhibition
# Type: biochemical
# cond: kinase MAPKAPK2; 1 µmol/L single concentration; read-out: %-inhibition at 1 µmol/L, MAPKAPK2
Decide by inhibition at 1 µM: equal to or exceeding -20% means Satisfied, less means Not satisfied.

Answered examples (6):
cpd_smiles=CCc1nc(C(N)=O)c(Nc2ccc(N3CCC(N4CCN(C)CC4)CC3)c(OC)c2)nc1NC1CCOCC1 group="Not satisfied"
cpd_smiles=CO[C@]1(C(=O)N[C@@H](C)c2ccc(-n3cc(F)cn3)nc2)CC[C@H](c2nc(C)cc(Nc3cc(C)[nH]n3)n2)CC1 group="Not satisfied"
cpd_smiles=CCN1C(=O)N(c2c(F)c(OC)cc(OC)c2F)Cc2cnc3[nH]c(CN4CCOCC4)cc3c21 group=Satisfied
cpd_smiles=C=CC(=O)N1CCC([C@@H]2CCNc3c(C(N)=O)c(-c4ccc(Oc5ccccc5)cc4)nn32)CC1 group=Satisfied
cpd_smiles=C[C@H]1Oc2cc(cnc2N)-c2c(nn(C)c2C#N)CN(C)C(=O)c2ccc(F)cc21 group=Satisfied
cpd_smiles=Cc1cc(Nc2ncnc3ccc(NC4=NC(C)(C)CO4)cc23)ccc1Oc1ccn2ncnc2c1 group="Not satisfied"

inhibition at 1 µM >= -20% for C[C@H](Nc1ncnc2nc[nH]c12)c1cc2cccc(Cl)c2c(=O)n1-c1ccccc1 ?
Satisfied

inhibition at 1 µM >= -20% for Cn1cnc2c(F)c(Nc3ccc(Br)cc3Cl)c(C(=O)NOCCO)cc21 ?
Satisfied

====

# tgt: panel of 255 wild-type kinases (Homo sapiens, UniProt Q15375)
# Sequence (Q15375 28-998): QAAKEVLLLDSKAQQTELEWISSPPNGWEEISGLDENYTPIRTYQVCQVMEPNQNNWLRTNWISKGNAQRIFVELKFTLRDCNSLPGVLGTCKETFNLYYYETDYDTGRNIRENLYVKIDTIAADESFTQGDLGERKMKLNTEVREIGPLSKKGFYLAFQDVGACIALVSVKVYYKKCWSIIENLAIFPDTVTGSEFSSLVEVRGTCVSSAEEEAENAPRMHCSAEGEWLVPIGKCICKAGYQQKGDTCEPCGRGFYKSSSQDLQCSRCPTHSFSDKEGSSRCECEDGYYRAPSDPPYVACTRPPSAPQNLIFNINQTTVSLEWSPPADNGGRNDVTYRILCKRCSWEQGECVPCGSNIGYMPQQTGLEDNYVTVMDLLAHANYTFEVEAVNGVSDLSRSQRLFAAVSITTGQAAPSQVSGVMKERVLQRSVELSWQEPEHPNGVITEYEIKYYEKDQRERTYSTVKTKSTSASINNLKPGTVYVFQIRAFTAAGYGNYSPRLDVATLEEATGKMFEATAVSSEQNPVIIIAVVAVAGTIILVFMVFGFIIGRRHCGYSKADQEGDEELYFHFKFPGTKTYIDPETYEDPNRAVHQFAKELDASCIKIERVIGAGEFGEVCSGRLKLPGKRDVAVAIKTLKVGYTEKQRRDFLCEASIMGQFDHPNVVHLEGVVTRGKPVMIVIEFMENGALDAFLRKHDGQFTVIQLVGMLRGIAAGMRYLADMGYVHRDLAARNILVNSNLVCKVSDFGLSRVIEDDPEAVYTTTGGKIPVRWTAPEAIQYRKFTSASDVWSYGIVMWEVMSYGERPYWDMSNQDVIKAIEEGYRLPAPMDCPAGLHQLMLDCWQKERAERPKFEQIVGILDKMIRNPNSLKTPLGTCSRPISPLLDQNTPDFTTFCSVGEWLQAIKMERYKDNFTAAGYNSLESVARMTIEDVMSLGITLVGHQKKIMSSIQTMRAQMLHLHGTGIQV
# protocol text: Kinase panel profiling at 1 µmol/L (MSA or IMAP), percentage inhibition
# Type: biochemical
# cond: kinase EPHA7; 1 µmol/L single concentration; read-out: %-inhibition at 1 µmol/L, EPHA7
measurement label: inhibition at 1 µM (%)
Provide the reading as a plain figure in %.

cpd_smiles=Cn1cnc2c(F)c(Nc3ccc(Br)cc3F)c(C(=O)NOCCO)cc21 quantitative_result=0.598
cpd_smiles=Cn1cnc2c(F)c(Nc3ccc(Br)cc3Cl)c(C(=O)NOCCO)cc21 quantitative_result=-1.78
cpd_smiles=C[C@H]1Oc2cc(cnc2N)-c2c(nn(C)c2C#N)CN(C)C(=O)c2ccc(F)cc21 quantitative_result=56
cpd_smiles=O=C(Nc1cnn2ccc(N3CCC[C@@H]3c3cc(F)ccc3F)nc12)N1CC[C@H](O)C1 quantitative_result=-0.152
cpd_smiles=CCN1C(=O)N(c2c(F)c(OC)cc(OC)c2F)Cc2cnc3[nH]c(CN4CCOCC4)cc3c21 quantitative_result=-0.619
cpd_smiles=FC(F)(F)c1ccc(CNc2ccc(Cc3c[nH]c4ncc(Cl)cc34)cn2)cn1 quantitative_result=6.38

Query compound follows.
I have this compound here, CCN1CCN(c2ccc(Nc3cc(N(C)C(=O)Nc4c(Cl)c(OC)cc(OC)c4Cl)ncn3)cc2)CC1 , and I need its recorded inhibition at 1 µM.
-4

====

# tgt: panel of 255 wild-type kinases (Homo sapiens)
# protocol text: Kinase panel profiling at 1 µmol/L (MSA or IMAP), percentage inhibition
# Type: biochemical
# cond: kinase HIPK1; 1 µmol/L single concentration; read-out: %-inhibition at 1 µmol/L, HIPK1
measurement label: inhibition at 1 µM

compound="CN1CCN(c2ccc(C(=O)Nc3n[nH]c4ccc(Cc5cc(F)cc(F)c5)cc34)c(NC3CCOCC3)c2)CC1 [entrectinib]" measurement_label="inhibition at 1 µM" result=11%
compound="Cn1cnc2c(F)c(Nc3ccc(Br)cc3F)c(C(=O)NOCCO)cc21 [binimetinib]" measurement_label="inhibition at 1 µM" result=0.44%

I have this compound here, CCN1CCN(c2ccc(Nc3cc(N(C)C(=O)Nc4c(Cl)c(OC)cc(OC)c4Cl)ncn3)cc2)CC1 [infigratinib] , and I need its recorded inhibition at 1 µM.
-4.25%

====

We begin with a simple list: items and their reported inhibition at 1 µM.
# tgt: panel of 255 wild-type kinases (Homo sapiens, UniProt Q16512)
# Sequence (Q16512 whole entry): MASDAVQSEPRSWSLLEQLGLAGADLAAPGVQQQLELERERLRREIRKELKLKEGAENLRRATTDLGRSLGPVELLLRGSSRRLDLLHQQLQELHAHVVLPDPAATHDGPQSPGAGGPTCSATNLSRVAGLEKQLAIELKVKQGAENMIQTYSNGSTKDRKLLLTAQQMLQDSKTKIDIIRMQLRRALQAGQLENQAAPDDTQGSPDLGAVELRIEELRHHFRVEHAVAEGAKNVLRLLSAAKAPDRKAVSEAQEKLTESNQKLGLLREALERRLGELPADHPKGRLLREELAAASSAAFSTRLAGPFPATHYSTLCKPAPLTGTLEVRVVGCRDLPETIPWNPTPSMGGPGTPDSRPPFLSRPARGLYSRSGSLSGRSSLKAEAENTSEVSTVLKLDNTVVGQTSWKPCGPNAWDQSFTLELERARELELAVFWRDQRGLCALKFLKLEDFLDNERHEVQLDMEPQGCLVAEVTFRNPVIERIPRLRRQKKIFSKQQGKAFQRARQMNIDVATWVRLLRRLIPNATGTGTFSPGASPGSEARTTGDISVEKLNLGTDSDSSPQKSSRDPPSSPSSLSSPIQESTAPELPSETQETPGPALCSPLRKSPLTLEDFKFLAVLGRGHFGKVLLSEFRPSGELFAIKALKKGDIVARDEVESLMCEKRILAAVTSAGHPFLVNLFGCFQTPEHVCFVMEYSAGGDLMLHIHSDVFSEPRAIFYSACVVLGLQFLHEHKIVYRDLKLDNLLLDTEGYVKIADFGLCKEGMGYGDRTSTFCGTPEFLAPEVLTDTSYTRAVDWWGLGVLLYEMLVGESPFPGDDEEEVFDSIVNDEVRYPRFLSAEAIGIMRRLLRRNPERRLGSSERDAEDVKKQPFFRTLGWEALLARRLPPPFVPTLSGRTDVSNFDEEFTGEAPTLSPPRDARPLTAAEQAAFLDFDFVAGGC
# protocol text: Kinase panel profiling at 1 µmol/L (MSA or IMAP), percentage inhibition
# Format: biochemical
# cond: kinase PKN1; 1 µmol/L single concentration; read-out: %-inhibition at 1 µmol/L, PKN1

Here's what some known entries look like.
cpd_smiles=CCN1CCN(c2ccc(Nc3cc(N(C)C(=O)Nc4c(Cl)c(OC)cc(OC)c4Cl)ncn3)cc2)CC1 result=13%
cpd_smiles=CCc1nc(C(N)=O)c(Nc2ccc(N3CCC(N4CCN(C)CC4)CC3)c(OC)c2)nc1NC1CCOCC1 result=65%
cpd_smiles=C[C@H]1Oc2cc(cnc2N)-c2c(nn(C)c2C#N)CN(C)C(=O)c2ccc(F)cc21 result=4.68%
cpd_smiles=O=C(Nc1cnn2ccc(N3CCC[C@@H]3c3cc(F)ccc3F)nc12)N1CC[C@H](O)C1 result=7%

What is its inhibition at 1 µM for panel of 255 wild-type kinases (Homo sapiens, UniProt Q16512)? Entry: C[C@H](Nc1ncnc2nc[nH]c12)c1cc2cccc(Cl)c2c(=O)n1-c1ccccc1
11%

What is its inhibition at 1 µM for panel of 255 wild-type kinases (Homo sapiens, UniProt Q16512)? Entry: CO[C@]1(C(=O)N[C@@H](C)c2ccc(-n3cc(F)cn3)nc2)CC[C@H](c2nc(C)cc(Nc3cc(C)[nH]n3)n2)CC1
27%

What is its inhibition at 1 µM for panel of 255 wild-type kinases (Homo sapiens, UniProt Q16512)? Entry: Cn1cc(-c2cc3c(N4CCN(c5ncc([C@@](C)(N)c6ccc(F)cc6)cn5)CC4)ncnn3c2)cn1
19%

====

# tgt: panel of 255 wild-type kinases (Homo sapiens, UniProt Q96BR1)
# Sequence (Q96BR1 whole entry): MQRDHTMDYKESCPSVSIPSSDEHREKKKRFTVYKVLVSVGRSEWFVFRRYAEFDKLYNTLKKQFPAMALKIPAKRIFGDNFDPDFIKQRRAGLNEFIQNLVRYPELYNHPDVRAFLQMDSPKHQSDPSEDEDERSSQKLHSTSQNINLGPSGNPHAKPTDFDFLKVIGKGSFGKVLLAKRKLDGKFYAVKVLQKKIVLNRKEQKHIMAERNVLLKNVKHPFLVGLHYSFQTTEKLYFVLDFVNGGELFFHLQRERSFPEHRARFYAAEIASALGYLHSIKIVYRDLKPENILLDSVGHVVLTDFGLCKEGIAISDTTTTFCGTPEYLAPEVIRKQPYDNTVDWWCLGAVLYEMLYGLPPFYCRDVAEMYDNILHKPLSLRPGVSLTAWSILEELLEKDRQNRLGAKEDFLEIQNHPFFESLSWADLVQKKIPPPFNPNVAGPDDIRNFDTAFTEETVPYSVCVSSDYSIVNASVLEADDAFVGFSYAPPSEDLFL
# protocol text: Kinase panel profiling at 1 µmol/L (MSA or IMAP), percentage inhibition
# Assay type: biochemical
# cond: kinase SGK3; 1 µmol/L single concentration; read-out: %-inhibition at 1 µmol/L, SGK3
measurement label: inhibition at 1 µM (%)
Provide the reading as a plain figure in %.

I have this compound here, CCN1C(=O)N(c2c(F)c(OC)cc(OC)c2F)Cc2cnc3[nH]c(CN4CCOCC4)cc3c21 , and I need its recorded inhibition at 1 µM.
-7
